molecular target: Cbl-b (Homo sapiens); construct: Cbl-b-HiBit KI Jurkat Cells were purchased from Promega; host or cells: Cbl-b-HiBiT knock-in Jurkat cells; assay: Cbl-b Degradation Method B (Nano-Glo HiBiT lytic detection); format: cell-based; details: Cbl-b-HiBit KI Jurkat Cells, incubated at least 6-24 hours; half maximal degradation; read-out: Cbl-b Degredation Method B IC50
A collection of molecules and their measured DC50

[[record]]
molecule = "CC1c2nc(N3CCC(CN4CCC(CN5CCN(Cc6cc7c(c(C(F)(F)F)c6)CN(c6cccc([C@]8(Cc9nncn9C)C[C@@H](C#N)C8)c6)C7=O)C(C)(C)C5)CC4)CC3)ccc2C(=O)N1C1CCC(=O)NC1=O (some centres unmarked)"
recorded_result = "< 5 nM"


Entry COc1c(N2CCC(O[C@H]3CC[C@H](CN4CCC5(CC4)CN(c4cc6c(c(C(F)(F)F)c4)CN(c4cccc(C7(Cc8nncn8C)COC7)c4)C6=O)C5)CC3)CC2)ccc2c1CN(C1CCC(=O)NC1=O)C2=O (some centres unmarked) , system Cbl-b (Homo sapiens): what DC50 was measured?
< 5 nM

====

The following compounds are shown together with reported DC50 values.
molecular target: Cbl-b (Homo sapiens, UniProt Q13191); construct: Cbl-b-HiBit KI Jurkat Cells were purchased from Promega; host or cells: Cbl-b-HiBiT knock-in Jurkat cells; test: Cbl-b Degradation Method B (Nano-Glo HiBiT lytic detection); assay type: cell-based; conditions: Cbl-b-HiBit KI Jurkat Cells, incubated at least 6-24 hours; half maximal degradation; read-out: Cbl-b Degredation Method B IC50
Sequence (Q13191 whole entry): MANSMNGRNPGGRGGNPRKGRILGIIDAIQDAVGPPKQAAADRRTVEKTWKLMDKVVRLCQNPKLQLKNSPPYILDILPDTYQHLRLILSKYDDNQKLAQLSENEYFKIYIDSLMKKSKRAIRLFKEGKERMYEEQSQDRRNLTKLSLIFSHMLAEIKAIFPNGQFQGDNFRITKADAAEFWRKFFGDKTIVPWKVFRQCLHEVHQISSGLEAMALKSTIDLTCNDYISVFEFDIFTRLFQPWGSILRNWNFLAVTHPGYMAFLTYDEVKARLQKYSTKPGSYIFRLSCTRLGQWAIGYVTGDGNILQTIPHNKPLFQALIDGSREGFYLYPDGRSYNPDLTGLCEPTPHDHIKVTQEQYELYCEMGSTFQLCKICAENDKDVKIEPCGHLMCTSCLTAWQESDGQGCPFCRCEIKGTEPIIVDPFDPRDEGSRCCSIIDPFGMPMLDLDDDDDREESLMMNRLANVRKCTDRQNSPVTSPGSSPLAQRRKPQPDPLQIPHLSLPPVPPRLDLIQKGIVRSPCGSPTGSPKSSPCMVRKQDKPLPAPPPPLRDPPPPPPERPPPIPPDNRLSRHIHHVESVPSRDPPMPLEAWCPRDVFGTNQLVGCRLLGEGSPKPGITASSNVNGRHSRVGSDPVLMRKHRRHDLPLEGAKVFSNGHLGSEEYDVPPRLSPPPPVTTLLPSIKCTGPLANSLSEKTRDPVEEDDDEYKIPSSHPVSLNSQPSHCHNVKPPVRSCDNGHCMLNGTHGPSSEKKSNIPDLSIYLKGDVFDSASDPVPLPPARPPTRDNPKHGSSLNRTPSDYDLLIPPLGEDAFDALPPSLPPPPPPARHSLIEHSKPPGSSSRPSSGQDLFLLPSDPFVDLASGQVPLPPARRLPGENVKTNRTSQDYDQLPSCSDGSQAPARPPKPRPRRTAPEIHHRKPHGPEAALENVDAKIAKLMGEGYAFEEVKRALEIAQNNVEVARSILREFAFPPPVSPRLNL

[[record]]
compound = "CCn1cnnc1CC1(c2cccc(N3Cc4c(cc(CN5CCN(C[C@H]6CC[C@H](OC7CCN(c8ccc9c(n8)C(C)N(C8CCC(=O)NC8=O)C9=O)CC7)CC6)CC5)cc4C(F)(F)F)C3=O)c2)COC1 (mixture of isomers) [Example 235]"
tested_on = "Cbl-b (Homo sapiens, UniProt Q13191)"
recorded_result = "< 5 nM"


Then this compound:
Form entry - test system: Cbl-b (Homo sapiens, UniProt Q13191); read-out: DC50; compound: Cn1cnnc1CC1(c2cccc(N3Cc4c(cc(CN5CCC[C@H](CN6CCN(C[C@H]7CC[C@@H](OC8CCN(c9ccc%10c(c9F)CN(C9CCC(=O)NC9=O)C%10=O)CC8)CC7)CC6(C)C)C5)cc4C(F)(F)F)C3=O)c2)CC1 (some centres unmarked) [Example 264]
< 5 nM

====

Listed here are compounds together with their documented DC50.
target: Cbl-b (Homo sapiens, UniProt Q13191); construct: Cbl-b-HiBit KI Jurkat Cells were purchased from Promega; host or cells: Cbl-b-HiBiT knock-in Jurkat cells; experiment: Cbl-b Degradation Method A (FACS, anti-Cbl-b antibody staining); format: cell-based; settings: Cbl-b-HiBit KI Jurkat Cells, incubated at least 20 hours; half maximal degradation; read-out: Cbl-b Degredation Method A IC50

[[record]]
compound = "Cc1cc(N2CCC(CN3CCC4(CC3)CN(c3cc5c(c(C(F)(F)F)c3)CN(c3cccc(C6(Cc7nncn7C)CCC6)c3)C5=O)C4)CC2)c(F)c2c1C(=O)N(C1CCC(=O)NC1=O)C2 (centres unmarked)"
recorded_result = "5 to 50 nM"

[[record]]
compound = "Cn1cnnc1CC1(c2cccc(N3Cc4c(cc(CN5CCCC(N6CCC(CN7CCC(CN8CCN(c9ccc%10c(c9)C(=O)N(C9CCC(=O)NC9=O)C%10=O)CC8)CC7)CC6)C5)cc4C(F)(F)F)C3=O)c2)COC1 (centres unmarked)"
recorded_result = "< 5 nM"

[[record]]
compound = "CC1c2nc(N3CCC(O[C@H]4CC[C@H](CN5CCN(Cc6cc7c(c(C(F)(F)F)c6)CN(c6cccc(C8(Cc9nncn9C9CC9)COC8)c6)C7=O)CC5)CC4)CC3)ccc2C(=O)N1C1CCC(=O)NC1=O (some centres unmarked)"
recorded_result = "< 5 nM"

[[record]]
compound = "CC1c2nc(N3CCC(O[C@H]4CC[C@H](CN5C[C@@H]6C[C@H]5CN6Cc5cc6c(c(C(F)(F)F)c5)CN(c5cccc([C@]7(Cc8nncn8C)C[C@H](C#N)C7)c5)C6=O)CC4)CC3)ccc2C(=O)N1C1CCC(=O)NC1=O (some centres unmarked)"
recorded_result = "5 to 50 nM"


# next compound below
Find the measured DC50: item Cn1cnnc1CC1(c2cccc(N3Cc4c(cc(N5CC6(CCN(CC7CCN(c8ccc9c(c8)CN(C8CCC(=O)NC8=O)C9=O)CC7)CC6)C5)cc4C(F)(F)F)C3=O)c2)COC1 (centres unmarked) , target or system Cbl-b (Homo sapiens, UniProt Q13191).
< 5 nM

The reported numbers originate from patent US20260184710A1.
